- Test system: Mus musculus
- measurement-description: Toxicity in mouse EAC cells transplanted Swiss albino mouse assessed as decrease in body weight at 25 mg/kg. ip dissolved in DMSO for 14 days measured after final dose by 18 hrs fasting
- Type: organism-based, Ehrlich
- Parameters: dose 25 mg/kg, route intraperitoneal; scale not given: the % may be the effect or the level left
- stated-conditions: in vivo
Classify by measured Activity: True if it is equal to or exceeds 20%, False if it is smaller.

molecule	test-target	group-label
CC(=O)O[C@H]1CC[C@H]2[C@@H]3CC[C@H]4CC5=C(C[C@]4(C)[C@H]3CC[C@]12C)C(c1ccccc1)OC(N)=C5C#N (stereo not given in full)	Mus musculus	False
COc1ccc(C2Oc3nc(N)c(C#N)c(N)c3C3=C2C[C@@]2(C)[C@@H](CC[C@@H]4[C@@H]2CC[C@]2(C)[C@@H](OC(C)=O)CC[C@@H]42)C3)cc1 (stereo not given in full)	Mus musculus	True
CC(=O)O[C@H]1CC[C@H]2[C@@H]3CC[C@H]4Cc5c(C#N)c(N)n(-c6ccccc6)c(=S)c5C[C@]4(C)[C@H]3CC[C@]12C	Mus musculus	False

Numbers sourced from ChEMBL document CHEMBL1153769.
